Parameter: ALP. Scope: all listed entries.
species: Rattus norvegicus; assay: Open TG-GATES - Regimen: Daily Repeat; format: toxicity, organism-based, Sprague-Dawley; parameters: regimen Daily Repeat, gender Male, age 6 weeks; settings: in vivo, po, 1000 mg/kg, […], tissue Plasma, route gavage, dose level High, time 28 day
Give the value, in units of IU/L, as a plain number.

CC(S)C(=O)NCC(=O)O (centres undefined) has a reported ALP of 1066

Just so you know, measured ALP for CC(=O)[C@@]1(O)CC[C@H]2[C@@H]3C=C(Cl)C4=CC(=O)CC[C@]4(C)[C@H]3CC[C@@]21C came out at 1076

For this compound ( O=C(O)c1ccccc1Nc1ccccc1 ), measured ALP is 1013.5

With those in mind, consider the next compound.
ALP reading for CCCCNC(=O)NS(=O)(=O)c1ccc(C)cc1 [TOLBUTAMIDE] : 1194

---

organism: Rattus norvegicus; test: Open TG-GATES - Regimen: Daily Repeat; type: toxicity, organism-based, Sprague-Dawley; design: regimen Daily Repeat, gender Male, age 6 weeks; conditions: in vivo, po, 300 mg/kg, […], tissue Plasma, route gavage, dose level Middle, time 7 day
outcome.measure: gamma-GTP (IU/L)
Supply the numeric figure in IU/L, leaving out any unit text.

// solved cases for gamma-GTP follow
# gamma-GTP of CCCCNC(=O)NS(=O)(=O)c1ccc(C)cc1 [TOLBUTAMIDE] = 1

The molecule CC(S)C(=O)NCC(=O)O (centres undefined) showed gamma-GTP equal to 1.8

Noted for O=C(O)c1ccccc1Nc1ccccc1 : its gamma-GTP reads 1.6

Now consider a different molecule.
Documented gamma-GTP of CC(=O)[C@@]1(O)CC[C@H]2[C@@H]3C=C(Cl)C4=CC(=O)CC[C@]4(C)[C@H]3CC[C@@]21C : 1.8

---

organism: Rattus norvegicus; test: Open TG-GATES - Regimen: Daily Repeat; type: toxicity, organism-based, Sprague-Dawley; parameters: regimen Daily Repeat, gender Male, age 6 weeks; settings: in vivo, po, 1000 mg/kg, 72 h, tissue Plasma, route gavage, dose level High, time 3 day
outcome.measure: TG (mg/dL)
I only need the number, in mg/dL, no unit after it.

For reference, reported TG for CC(S)C(=O)NCC(=O)O (centres undefined) stands at 83.4

// recorded TG for CCCCNC(=O)NS(=O)(=O)c1ccc(C)cc1 [TOLBUTAMIDE] : 68

Lab note: CC(=O)[C@@]1(O)CC[C@H]2[C@@H]3C=C(Cl)C4=CC(=O)CC[C@]4(C)[C@H]3CC[C@@]21C gave TG of 154.2

With those in mind, consider the next molecule.
# TG (molecule: O=C(O)c1ccccc1Nc1ccccc1 ) is 89.3

---

Here the recorded WBC is given for each entry.
organism: Rattus norvegicus; experiment: Open TG-GATES - Regimen: Daily Repeat; type: toxicity, organism-based, Sprague-Dawley; design: regimen Daily Repeat, gender Male, age 6 weeks; settings: in vivo, po, 1000 mg/kg, […], tissue Blood, route gavage, dose level High, time 7 day
Dear colleague, please return just the value in x10_2/uL, with no unit written.

Short answer for O=C(O)c1ccccc1Nc1ccccc1 : WBC was 161.4

Next:
Form field WBC, entry CC(S)C(=O)NCC(=O)O (centres undefined) : 115.2

Record CC(=O)[C@@]1(O)CC[C@H]2[C@@H]3C=C(Cl)C4=CC(=O)CC[C@]4(C)[C@H]3CC[C@@]21C . Reported WBC: 120.3

The measured WBC associated with CCCCNC(=O)NS(=O)(=O)c1ccc(C)cc1 [TOLBUTAMIDE] reads 138.8
